# testedTarget: Histone deacetylase 1 (Homo sapiens)
# Sequence (Q13547 whole entry): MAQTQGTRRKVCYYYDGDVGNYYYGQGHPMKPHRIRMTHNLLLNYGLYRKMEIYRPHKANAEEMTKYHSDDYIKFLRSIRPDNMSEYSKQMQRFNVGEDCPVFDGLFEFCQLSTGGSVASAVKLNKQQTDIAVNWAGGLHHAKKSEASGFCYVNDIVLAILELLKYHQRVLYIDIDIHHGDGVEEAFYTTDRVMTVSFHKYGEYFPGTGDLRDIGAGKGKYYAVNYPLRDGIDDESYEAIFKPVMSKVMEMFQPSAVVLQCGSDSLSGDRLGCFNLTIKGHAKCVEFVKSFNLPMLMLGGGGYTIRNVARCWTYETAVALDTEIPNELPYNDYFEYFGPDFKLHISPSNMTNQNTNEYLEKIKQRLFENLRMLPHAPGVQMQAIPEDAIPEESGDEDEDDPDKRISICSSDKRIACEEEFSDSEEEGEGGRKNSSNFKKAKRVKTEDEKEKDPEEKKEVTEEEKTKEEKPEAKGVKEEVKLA
# runDescription: Inhibition of recombinant human HDAC1 using fluorogenic substrate by fluorescence assay
readoutName: pIC50
Numbers only, as −log10 of the molar value.

COc1cc(C(=O)c2cn(S(=O)(=O)c3cccc(/C=C/C(=O)NO)c3)c3ccccc23)cc(OC)c1OC: 6.86
COc1ccc2c(C(=O)c3cc(OC)c(OC)c(OC)c3)cn(Cc3ccc(C(=O)NO)cc3)c2c1: 6.24
COc1ccc(C(=O)c2cn(Cc3ccc(C(=O)NO)cc3)c3cc(OC)ccc23)cc1: 6.80
COc1cc(C(=O)c2cn(Cc3ccc(/C=C/C(=O)NO)cc3)c3ccccc23)cc(OC)c1OC: 6.85
COc1ccc2c(C(=O)c3cc(OC)c(OC)c(OC)c3)cn(S(=O)(=O)c3cccc(/C=C/C(=O)NO)c3)c2c1: 6.33

// next entry
Would you mind telling me what pIC50 value was observed for COc1ccc2c(C(=O)c3cc(OC)c(OC)c(OC)c3)cn(Cc3ccc(/C=C/C(=O)NO)cc3)c2c1 ?
6.89

###

# testedTarget: UniProt:Q9UBN7
# Sequence (Q9UBN7 whole entry): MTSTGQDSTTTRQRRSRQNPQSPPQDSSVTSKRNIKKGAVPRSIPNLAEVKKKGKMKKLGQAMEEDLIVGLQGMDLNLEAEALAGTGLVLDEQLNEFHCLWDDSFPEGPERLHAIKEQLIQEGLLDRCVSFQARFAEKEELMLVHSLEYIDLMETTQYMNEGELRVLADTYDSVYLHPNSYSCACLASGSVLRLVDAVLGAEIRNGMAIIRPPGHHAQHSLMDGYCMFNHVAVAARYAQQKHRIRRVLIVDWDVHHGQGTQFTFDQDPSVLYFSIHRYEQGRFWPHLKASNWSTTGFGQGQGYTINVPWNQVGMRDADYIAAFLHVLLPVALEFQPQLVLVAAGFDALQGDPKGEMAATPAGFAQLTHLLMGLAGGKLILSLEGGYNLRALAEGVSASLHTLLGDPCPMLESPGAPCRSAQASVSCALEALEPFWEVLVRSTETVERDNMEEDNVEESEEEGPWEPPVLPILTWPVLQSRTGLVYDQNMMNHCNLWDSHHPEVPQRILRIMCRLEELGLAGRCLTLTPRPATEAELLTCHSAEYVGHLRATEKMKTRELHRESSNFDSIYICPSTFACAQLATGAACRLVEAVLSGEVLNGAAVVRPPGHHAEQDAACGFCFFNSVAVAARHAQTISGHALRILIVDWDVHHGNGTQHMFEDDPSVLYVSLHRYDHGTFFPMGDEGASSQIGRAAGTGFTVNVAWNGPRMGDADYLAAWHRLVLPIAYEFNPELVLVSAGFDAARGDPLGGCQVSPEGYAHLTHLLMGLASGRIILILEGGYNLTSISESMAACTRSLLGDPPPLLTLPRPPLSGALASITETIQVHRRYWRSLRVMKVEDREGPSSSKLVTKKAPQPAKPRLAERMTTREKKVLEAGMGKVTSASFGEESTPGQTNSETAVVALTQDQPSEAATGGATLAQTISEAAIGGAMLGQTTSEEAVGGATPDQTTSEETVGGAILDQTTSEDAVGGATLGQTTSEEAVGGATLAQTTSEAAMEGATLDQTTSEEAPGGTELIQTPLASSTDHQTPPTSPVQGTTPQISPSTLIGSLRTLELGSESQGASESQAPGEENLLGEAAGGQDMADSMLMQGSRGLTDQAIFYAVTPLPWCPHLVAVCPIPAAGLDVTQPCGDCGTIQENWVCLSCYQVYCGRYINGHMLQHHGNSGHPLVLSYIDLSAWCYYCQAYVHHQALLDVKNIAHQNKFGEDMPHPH
# runDescription: Inhibition of recombinant human HDAC6 using fluorogenic substrate by fluorescence assay
readoutName: IC50

Some compounds with recorded IC50:
COc1cc(C(=O)c2cn(S(=O)(=O)c3cccc(/C=C/C(=O)NO)c3)c3ccccc23)cc(OC)c1OC: 792 nM
COc1ccc2c(C(=O)c3cc(OC)c(OC)c(OC)c3)cn(Cc3ccc(/C=C/C(=O)NO)cc3)c2c1: 70.5 nM

// next entry
Would you mind telling me what IC50 value was observed for COc1cc(C(=O)c2cn(Cc3ccc(/C=C/C(=O)NO)cc3)c3ccccc23)cc(OC)c1OC ?
138 nM

###

# testedTarget: UniProt Q9UQL6
# Sequence (Q9UQL6 whole entry): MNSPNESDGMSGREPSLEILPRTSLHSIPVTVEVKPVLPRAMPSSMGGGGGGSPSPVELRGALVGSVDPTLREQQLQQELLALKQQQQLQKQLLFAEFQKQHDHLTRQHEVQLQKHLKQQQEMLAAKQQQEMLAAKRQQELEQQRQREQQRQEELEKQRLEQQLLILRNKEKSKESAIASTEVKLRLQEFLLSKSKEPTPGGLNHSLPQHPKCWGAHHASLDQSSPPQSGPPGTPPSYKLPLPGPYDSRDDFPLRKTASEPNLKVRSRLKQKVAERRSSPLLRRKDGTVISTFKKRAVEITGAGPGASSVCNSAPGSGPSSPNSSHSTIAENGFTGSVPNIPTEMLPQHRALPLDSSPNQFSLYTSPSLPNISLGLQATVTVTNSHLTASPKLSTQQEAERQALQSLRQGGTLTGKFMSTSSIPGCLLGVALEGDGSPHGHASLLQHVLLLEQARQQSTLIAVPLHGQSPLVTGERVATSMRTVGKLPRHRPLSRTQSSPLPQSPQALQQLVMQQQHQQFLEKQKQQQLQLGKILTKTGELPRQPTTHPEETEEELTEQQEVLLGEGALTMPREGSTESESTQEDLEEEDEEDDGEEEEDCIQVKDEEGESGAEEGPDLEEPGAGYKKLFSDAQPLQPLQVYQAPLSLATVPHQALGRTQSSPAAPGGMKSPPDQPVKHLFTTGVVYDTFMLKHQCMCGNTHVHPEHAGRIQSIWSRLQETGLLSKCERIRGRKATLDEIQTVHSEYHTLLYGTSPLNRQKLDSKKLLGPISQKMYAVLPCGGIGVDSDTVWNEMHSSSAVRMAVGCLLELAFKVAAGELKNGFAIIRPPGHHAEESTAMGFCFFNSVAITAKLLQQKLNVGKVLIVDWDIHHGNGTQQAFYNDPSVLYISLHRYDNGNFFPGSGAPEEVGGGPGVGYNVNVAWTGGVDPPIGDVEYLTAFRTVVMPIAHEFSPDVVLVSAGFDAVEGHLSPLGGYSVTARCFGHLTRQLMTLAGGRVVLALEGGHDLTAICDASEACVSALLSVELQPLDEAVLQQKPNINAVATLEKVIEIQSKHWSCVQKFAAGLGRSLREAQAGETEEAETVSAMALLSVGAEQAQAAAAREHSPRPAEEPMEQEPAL
# runDescription: Inhibition of recombinant human HDAC5 using fluorogenic substrate by fluorescence assay
readoutName: IC50

COc1ccc2c(C(=O)c3cc(OC)c(OC)c(OC)c3)cn(Cc3ccc(C(=O)NO)cc3)c2c1: 1.03 µM

Would you mind telling me what IC50 value was observed for COc1ccc2c(C(=O)c3cc(OC)c(OC)c(OC)c3)cn(S(=O)(=O)c3cccc(/C=C/C(=O)NO)c3)c2c1 ?
356 µM

###

# runDescription: Inhibition of HDAC activity in human HeLa cell nuclear extract using fluorometric substrate measured after 30 mins by fluorescence assay
# Type: cell-based
Provide the reported pIC50 of each item.
One number for each entry, as −log10 of the molar value.

Field: pIC50. Fill in for each record below.
1. COc1cc(C(=O)c2cn(Cc3ccc(/C=C/C(=O)NO)cc3)c3ccccc23)cc(OC)c1OC
2. COc1ccc2c(C(=O)c3cc(OC)c(OC)c(OC)c3)cn(Cc3ccc(/C=C/C(=O)NO)cc3)c2c1
3. COc1ccc(C(=O)c2cn(Cc3ccc(C(=O)NO)cc3)c3cc(OC)ccc23)cc1

1. 6.75
2. 6.83
3. 6.84

###

# runDescription: Inhibition of HDAC activity in human HeLa cell nuclear extract using fluorometric substrate measured after 30 mins by fluorescence assay
# Format: cell-based
Provide the reported IC50 of each item.

COc1cc(C(=O)c2cn(S(=O)(=O)c3cccc(/C=C/C(=O)NO)c3)c3ccccc23)cc(OC)c1OC: 172 nM
COc1ccc2c(C(=O)c3cc(OC)c(OC)c(OC)c3)cn(S(=O)(=O)c3ccc(/C=C/C(=O)NO)cc3)c2c1: > 10000 nM
COc1ccc2c(C(=O)c3cc(OC)c(OC)c(OC)c3)cn(S(=O)(=O)c3cccc(/C=C/C(=O)NO)c3)c2c1: 135 nM

// next entry
Would you mind telling me what IC50 value was observed for COc1ccc2c(C(=O)c3cc(OC)c(OC)c(OC)c3)cn(Cc3ccc(C(=O)NO)cc3)c2c1 ?
611 nM
